B1: glmS ribozyme (parent)
chain: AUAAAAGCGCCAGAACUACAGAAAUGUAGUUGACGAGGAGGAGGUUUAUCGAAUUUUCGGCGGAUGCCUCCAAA

- Variants of: B1
- PROTOCOL SUMMARY: self-cleavage kobs at 10000 uM GlcN6P; higher = faster cleavage; RNA array
- PARTICULARS: with glucosamine-6-phosphate
Fewer inactive variants are shown than the library holds.
Outcome label depends on self-cleavage kobs at 10000 uM GlcN6P relative to 0.0003 s⁻¹: at/above gives yes, below gives no.

# MUTATION, CATEGORY LABEL
measured = [
    ("G44A C61G", "no"),
    ("G41C C61U", "no"),
    ("G37A C50G", "no"),
    ("A12C U45G", "yes"),
    ("C8A U31A C50G A53U C70A", "yes"),
    ("G9U C10G A15G G38U A39G A52U", "no"),
    ("A39C G51C G59C", "no"),
    ("C16U G26U U31C", "no"),
    ("U31C G40C U54C U56A A64U", "no"),
    ("A39C A48G U55C", "no"),
    ("G59C", "no"),
    ("A48G C67A", "no"),
    ("G7A A14G A39G C71U", "no"),
    ("C16A G29C A39C", "yes"),
    ("C67U U69A", "no"),
    ("G13C U31C A39C", "no"),
    ("G44U A52G A53U", "no"),
    ("U31C A48U C50A A53C U65G G66A", "no"),
    ("A33C G37U", "no"),
    ("G35A G43C C67G C68G", "no"),
    ("A36U G40A", "no"),
    ("G13U C61G C68G", "no"),
    ("G7C U31G", "no"),
    ("A6C U49A", "no"),
    ("A6C C71U", "no"),
    ("A15C C61A", "no"),
    ("A6G G29U G43C C61U C67U", "no"),
    ("A36C C50G C70U", "yes"),
    ("G66A U69G", "no"),
    ("G44A U55A", "yes"),
    ("C8U U54A", "no"),
    ("A1C U56G", "yes"),
    ("G9U A48U U57A", "no"),
    ("A33U G35U U54A", "no"),
    ("A14G G32A G38U", "no"),
    ("U69C C70U", "yes"),
    ("G9U C16U A52G C67G", "yes"),
    ("A14G A33U", "no"),
    ("G29A G43U G51A", "no"),
    ("A12U A39U C71U", "yes"),
    ("G29A U56A", "yes"),
    ("A14G C50U", "no"),
]
